All values here come from the supplement of paper PMC10724198.

Test system: Saccharomyces cerevisiae;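 note: PSI is a weighted mean of sequencing reads over stability bins, variants kept only with over 10 reads, mCherry proximal and sfGFP distal, peptide attached via GGGS linker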
Assay Notes: protein stability index of tFT-peptide fusion (C-terminal peptide) (PSI (0-1 scale)); higher = more stable (slower turnover)
Cond: genetic background: wild type; temperature: 30 C
Observable: protein stability index

1) SIGACGEVTFGC : 0.708
2) WSLLLLPEFSLR : 0.705
3) PLPPSSSPSSLP : 0.71
4) IVNNVKYKNRNR : 0.715
5) PSIPSNPPTPPR : 0.72
6) VRSGKGKNRWNK : 0.719
7) PRGLGPPGWGRR : 0.697
8) TSPPPLPLPSLR : 0.686
9) MMFRRLPTRGRF : 0.695
10) NENFILCPRVNL : 0.701
11) KCPSLVHSNSTG : 0.71
12) PWFIGGSLGESG : 0.699
13) ILGIESLVAGLL : 0.697
14) PPPPPTRLPQNS : 0.694
15) RKKKKKNKNEKE : 0.713
16) SPPPSPPTVLPI : 0.683
17) EGGRFTALSSTS : 0.689
18) RRSVMLISNETR : 0.698
19) PSTPPPPPGDFL : 0.709
